Hey, just so you know, these numbers are from ChEMBL document CHEMBL1133677.

Reported pKi values are given for each entry in this list.
Target: Carbonic anhydrase 2 (Homo sapiens)
Lab note — pKi values are minus log10 of concentrations in M.

Use these answered entries as a reference point.
* O=C(CN(Cc1ccc([N+](=O)[O-])cc1)S(=O)(=O)C(F)(F)C(F)(F)C(F)(F)C(F)(F)F)NO | 6.93
* CC(=O)Nc1ccc(S(=O)(=O)NO)cc1 | 7.54

IN: Quick one: pKi of CC(C)C(NS(=O)(=O)c1c(F)c(F)c(F)c(F)c1F)C(=O)NO (stereo unspecified) ?
OUT: 7.96

IN: Quick one: pKi of Cc1cc(C)c(S(=O)(=O)NO)c(C)c1 ?
OUT: 7.21

IN: Quick one: pKi of CN(C)S(=O)(=O)NO ?
OUT: 7.40
